- SYSTEM: T1, human IL-1β (human, UniProt P01584 117-269)
- T1 construct: antigen of the ABT2 dAbs; also called hIL-1β; IL-1 beta
- PROTOCOL DETAILS: IC50 column of Table 63; receptor binding assay presumed
ASSAY ENDPOINT: IC50 (nM)
The response must be a number in nM with no trailing unit.

State its IC50 for this binder: ABT2-65-22 (other, VH dAb) VH: EVQLLESGGGLVQPGGSLRLSCAASGFTFLGYPMGWVRQAPGKGLEWVSSISAMGNRTYYADSVKGRFTISPDDSKNTLYLQMNSLRAEDTAVYYCAKNLVRTQSKMWMFDYWGQGTLVTVSS
100

State its IC50 for this binder: ABT2-65-145 (other, VH dAb) VH: EVQLLESGGGLVQPGGSLRLSCAASGFTFEDYQMGWVRQAPGKGLEWVSSISAMGNRTYYADSVKGRFTISRDDSKNTLYLQMNSLRAEDTAVYYCAENLVRIQKVKWMFDYWGQGTLVTVSS
5

State its IC50 for this binder: ABT2-65-158 (other, VH dAb) VH: EVQLLESGGGLVQPGGSLRLSCAASGFTFEDYQMGWVRQAPGKGLEWVSSISAMGNRTYYADSVKGRFTISRDDSKNTLYLQMNSLRAEDTAVYYCAQNLVKWKRDFWMFDYWGQGTLVTVSS
5

State its IC50 for this binder: ABT2-65-38 (other, VH dAb) VH: EVQLLESGGGLVQPGGSLRLSCAASGFTFEDYQMGWVRQAPGKGLEWVSSISAMGNRTYYADSVKGRFTIYRDDSKNTLYLQMNSLRAEDTAVYYCAQNLVRTQSKMWMFDYWGQGTLVTVSS
30

State its IC50 for this binder: ABT2-65-139 (other, VH dAb) VH: EVQLLESGGGLVQPGGSLRLSCAASGFTFEDYQMGWVRQAPGKGLEWVSSISAMGNRTYYADSVKGRFTISRDDSKNTLYLQMNSLRAEDTAVYYCAQNLVRVRVRRWMFDYWGQGTLVTVSS
4

State its IC50 for this binder: ABT2-65-155 (other, VH dAb) VH: EVQLLESGGGLVQPGGSLRLSCAASGFTFEDYQMGWVRQAPGKGLEWVSSISAMGNRTYYADSVKGRFTISRDDSKNTLYLQMNSLRAEDTAVYYCAQNLVLVQRRKWMFDYWGQGTLVTVSS
5

State its IC50 for this binder: ABT2-65-159 (other, VH dAb) VH: EVQLLESGGGLVQPGGSLRLSCAASGFTFEDYQMGWVRQAPGKGLEWVSSISAMGNRTYYADSVKGRFTISRDDSKNTLYLQMNSLRAEDTAVYYCAENLVRVSKARWMFDYWGQGTLVTVSS
5

State its IC50 for this binder: ABT2-61 (other, VK dAb) VL: DIQMTQSPSSLSASVGDRVTITCRASQSIRVFLSWYQQKPGKAPKLLIYNASHLQSGVPSRFSGSGSGTDFTLTISSLQPEDFATYYCQQRALYPTTFGQGTKVEIKR
1000

meta.source: patent US20090291081A1
